biological target: Muscarinic acetylcholine receptor M5 (Homo sapiens) (UniProt P08912); experiment: human M5 muscarinic receptor positive allosteric modulators, primary screen, CHO-K1 cells, Fluo-8 calcium fluorescence (AID 624038); conditions: CHO-K1 hM5, Fluo-8 calcium, ACh EC20 PAM; at 3 µM; 0% = ACh EC20, 100% = ACh EC100
Sequence (P08912 whole entry, looked up): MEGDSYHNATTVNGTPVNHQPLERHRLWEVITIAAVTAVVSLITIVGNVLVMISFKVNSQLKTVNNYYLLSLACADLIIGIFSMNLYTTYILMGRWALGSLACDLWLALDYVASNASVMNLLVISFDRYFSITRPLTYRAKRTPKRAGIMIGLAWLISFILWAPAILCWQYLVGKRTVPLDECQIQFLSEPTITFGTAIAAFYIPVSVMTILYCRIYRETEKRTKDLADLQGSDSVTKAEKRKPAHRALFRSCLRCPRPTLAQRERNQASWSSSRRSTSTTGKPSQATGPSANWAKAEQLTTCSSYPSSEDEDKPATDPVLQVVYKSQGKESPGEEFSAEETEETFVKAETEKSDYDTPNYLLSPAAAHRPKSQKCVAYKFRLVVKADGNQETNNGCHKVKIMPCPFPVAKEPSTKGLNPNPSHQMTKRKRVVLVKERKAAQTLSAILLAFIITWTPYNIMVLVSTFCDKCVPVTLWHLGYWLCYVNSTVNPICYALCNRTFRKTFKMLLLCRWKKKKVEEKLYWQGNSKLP
In all, about 360,000 compounds went through this assay and about 1,100 (0.31%) were called active.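 The calls were made as follows: active = activation above the run cutoff, the mean activation of all test compounds plus 3 SD (cut at about 18% in these data); inactive = the rest.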 The full list was thinned out, with actives kept by preference.
Outcomes you can answer with include only these: active, inactive

In: How was CCc1nnc(NS(=O)(=O)c2ccc(NC(=O)c3cccc(OC(F)(F)C(F)F)c3)cc2)s1 classified in this test?
Out: active

In: Per the records of this test, what outcome belongs to CCc1nnc(NS(=O)(=O)c2ccc(NC(=S)NC(=O)/C=C/c3cccs3)cc2)s1 ?
Out: inactive

In: Give the logged outcome of this assay for the following compound: CC(C)CN(C(=O)CSc1nncn1C)C1CCS(=O)(=O)C1 (stereo not given)
Out: inactive

In: Test call, this compound: Cc1cc(NS(=O)(=O)c2ccc(NC(=O)c3cccc(OC(F)F)c3)cc2)nc(C)n1
Out: inactive

In: Recorded call for CCOC(=O)C(C)N(c1ccccc1Cl)S(C)(=O)=O (stereo not given) ?
Out: inactive

====

molecular target: Muscarinic acetylcholine receptor M5 (Homo sapiens) (UniProt P08912); test: human M5 muscarinic receptor positive allosteric modulators, primary screen, CHO-K1 cells, Fluo-8 calcium fluorescence (AID 624038); conditions: CHO-K1 hM5, Fluo-8 calcium, ACh EC20 PAM; at 3 µM; hits give high values; 0% = ACh EC20, 100% = ACh EC100
In all, about 360,000 compounds went through this assay and about 1,100 (0.31%) were called active. This is one part of a sample in which actives are shown more often than they occur.
Assay Endpoint: activation (%)
Expressed in %, but write only the number.

// Cc1ccccc1C(=O)Nc1ccccc1Sc1ccccc1 : activation value = -14.3

Measured activation, CN1CCN(S(=O)(=O)c2ccc(Nc3ccc(F)cc3)nc2)CC1 : 11.7

Lab book: activation of CCCc1nc(N2CCN(C)CC2)c2sc(=S)n(-c3ccccc3)c2n1 noted as -2.27

response.value for CC(=O)c1c(C)[nH]c(C(=O)NCc2ccc(C)cc2)c1C (field: activation) = 11.5

CC(C)(C)C1CCC(OC(=O)CCC(=O)Nc2ccccc2)CC1 (configuration not stated) yielded activation of -2.13

====

target: Muscarinic acetylcholine receptor M5 (Homo sapiens); experiment: human M5 muscarinic receptor positive allosteric modulators, primary screen, CHO-K1 cells, Fluo-8 calcium fluorescence (AID 624038); settings: CHO-K1 hM5, Fluo-8 calcium, ACh EC20 PAM; at 3 µM; hits give high values; 0% = ACh EC20, 100% = ACh EC100
The whole screen tested about 360,000 compounds, of which about 1,100 (0.31%) were called active. The full list was thinned out, with actives kept by preference.
Assay Endpoint: activation (%)
The reply should contain only the number, in %.

>>> recorded_measurement("Cc1ccc(C(C)(C)C)c(OCCCCN2CCCC2)c1")
-4.25
>>> recorded_measurement("CCn1ccnc1CN(C)C(=O)c1ccc2nc(Cc3ccc(OC)cc3)oc2c1")
-3.69
>>> recorded_measurement("CCOC(=O)c1cnc(-n2nc(C)cc2C)nc1-n1nc(C)cc1C")
37.3
>>> recorded_measurement("COC(=O)c1ccc(NC(=O)C23CC4CC(C2)CC(n2cnc(Cl)n2)(C4)C3)cc1")
3.27
>>> recorded_measurement("Cc1ccc(C)c(OCc2cc(C(=O)N3CCN(c4cnccn4)CC3)no2)c1")
-8.08

Here is another compound to look at.
Notebook: CCN(CC)c1ccc(C2C3CCCCC3(O)CCN2CC(=O)Nc2ccccc2)cc1 (stereo not given) , activation read as -6.54
